- PROTOCOL DETAILS: chemical genetic growth profiling, strain panel (AID 1159580);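 note: tested at 20 µM; growth read once vehicle control cultures reached saturation at 30 °C; 1 = growth at the plate median or of vehicle wells; lower values mean less growth of the strain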
- ASSAY CONTEXT: S. cerevisiae deletion strains, growth OD, locus YLR039C, strain RIC1
Among all 5,500 compounds or so, about 2,000 (36%) were called active. Not shown: some 18% with an inconclusive outcome. Cut-off read from the data, not from the text of the source: active = normalized growth mostly below about 0.91 (no sharp cut-off); inconclusive = no clear call, values can overlap the other calls; inactive = mostly above about 0.92. The list shows a part of the results.
Parameter call: string, one of class 1 for active, class 0 for inactive

Prompt line: For "Cc1c(C(N)=O)cc([N+](=O)[O-])cc1[N+](=O)[O-]" , what call appears in the results of this test?
Response line: class 0

Prompt line: Identify the outcome logged in this assay for the compound shown: "Cc1ccc(S(=O)(=O)N2CCC(N)=N2)cc1"
Response line: class 0

Prompt line: Assay outcome for "Cc1onc(-c2ccccc2)c1C(=O)On1c(-c2ccccc2)nc2ccccc2c1=O" : what was it?
Response line: class 1

Prompt line: Which result was noted for this compound in the test: "CO[C@@H]1[C@@H](OC(N)=O)[C@@H](O)[C@H](Oc2ccc3c(O)c(NC(=O)c4ccc(O)c(CC=C(C)C)c4)c(=O)oc3c2C)OC1(C)C"
Response line: class 0

Prompt line: // return assay outcome for "C[N+]1(C)C[C@H](O)[C@H](C(=O)[O-])C1"
Response line: class 0

Prompt line: Each compound tested received a call. Report the one for Oc1ccc2c3c1OC1[C@@H](O)CC[C@@]4(O)[C@@H](C2)N(CC2CCC2)CC[C@]314 (some centres undefined) .
Response line: class 0

Prompt line: Test call for this compound, please: CCOC(=O)C1C(=O)C=C(c2cccs2)CC1c1ccc(OC)c(OC)c1Cl (centres undefined)
Response line: class 0

Prompt line: How was "CNC[C@H](O)c1cccc(O)c1" classified in this test?
Response line: class 0

Prompt line: Entry "N#Cc1c(Cl)cccc1N1CCC(C(=O)NC(=O)Nc2ccc(Cl)cc2)CC1" : call = ?
Response line: class 0

Prompt line: Which outcome did this test record for the compound "N#Cc1c(Cl)cccc1Cl" ?
Response line: class 0

Prompt line: # fetch the recorded call for "NC(=O)c1ccc([N+](=O)[O-])cc1Cl" here
Response line: class 0

Prompt line: So what was the verdict on "CCOC(=O)c1nnc2cc(C)nn2c1C" in this test?
Response line: class 0

Prompt line: I'd appreciate the recorded outcome for "O=c1c(O)cc([C@H]2Oc3cc(O)cc(O)c3C[C@H]2O)cc2c([C@H]3Oc4cc(O)cc(O)c4C[C@H]3O)cc(O)c(O)c12" from this test.
Response line: class 0

Prompt line: What did this assay record as the result for "CCn1nc(C)cc1C(=O)O" ?
Response line: class 0

Prompt line: Can you look up the reported call for CC1(C)C(O)CC(=O)C2(C)C1CC(O)C1(C)C2CCC2(C)C(c3ccoc3)OC(=O)C3OC321 (centres undefined) for me?
Response line: class 0

Prompt line: # fetch the recorded call for CC(C)(C)NCC(O)COc1cccc2c1C[C@H](O)[C@H](O)C2 (some centres undefined) here
Response line: class 0

Prompt line: What did the test return for "Cc1ccc(NC(=O)CC#N)c(C)c1" ?
Response line: class 0

Prompt line: Please let me know the test result on file for CCCCCC(O)C1C(=O)OC(C)C(O)/C=C/C=C/C=C/C=C/C=C(\C)C(O)CC(O)CC(O)CC(O)CC(O)CC(O)CC1O (centres undefined) .
Response line: class 0

Prompt line: # fetch the recorded call for "O=C(Nc1ccccc1)N1CCN(C(c2ccccc2)c2ccccc2)CC1" here
Response line: class 0

Prompt line: Hi, sorry to bother you, what did the test record for C[C@H]1OC(O[C@H]2[C@@H](O)CC(O[C@H]3[C@@H](O)C[C@H](O[C@H]4CC[C@]5(C)C6CC[C@]7(C)[C@@H](C8=CC(=O)OC8)[C@@H](O)C[C@]7(O)[C@@H]6CC[C@@H]5C4)O[C@@H]3C)O[C@@H]2C)C[C@H](O)C1O (some centres undefined) ?
Response line: class 0

Prompt line: Lab log entry: C[C@H]1O[C@@H](O[C@H]2[C@@H](O)C[C@H](O[C@H]3[C@@H](O)C[C@H](O[C@H]4CC[C@]5(C)C6C[C@@H](O)[C@]7(C)[C@@H](C8=CC(=O)OC8)CC[C@]7(O)C6CC[C@@H]5C4)O[C@@H]3C)O[C@@H]2C)C[C@H](O)[C@@H]1O (some centres undefined) — outcome as called in the assay?
Response line: class 0

Prompt line: Returns: the outcome recorded for C[C@@H]1O[C@@H](O[C@H]2CC[C@]3(C=O)C4CC[C@]5(C)[C@@H](C6=CC(=O)OC6)CC[C@]5(O)C4CC[C@]3(O)C2)[C@H](O)[C@H](O)[C@H]1O (some centres undefined) in this assay.
Response line: class 0

Prompt line: Would you mind telling me which call this test gave CC1=CC(=O)C2C(C)(C)CCC[C@]2(C)[C@@]1(O)CCc1ccoc1 (some centres undefined) ?
Response line: class 0

Prompt line: What is the recorded call for this compound in the test? "O=C1NC(=S)NC(=O)C1=Cc1cccc2ccccc12"
Response line: class 0

Prompt line: Per the assay record, what outcome was assigned to CO[C@@H]1C[C@H](O[C@H]2CC[C@]3(C)C4CC[C@]5(C)[C@@H](C6=CC(=O)OC6)CC[C@]5(O)[C@@H]4CC[C@]3(O)C2)O[C@H](C)[C@@H]1O (some centres undefined) ?
Response line: class 0

Prompt line: Per the assay record, what outcome was assigned to CC(=O)OCC(=O)[C@@]1(O)CCC2C3C[C@H](C)C4=CC(=O)C=CC4(C)C3[C@@H](O)CC21C (some centres undefined) ?
Response line: class 0

Prompt line: Hello, I am checking results. What call was entered for "COc1ccc(-c2cc(=O)c3c(O)c(OC)c(O[C@H]4O[C@H](CO[C@@H]5O[C@@H](C)[C@H](O)[C@@H](O)[C@H]5O)[C@@H](O)[C@H](O)[C@H]4O)cc3o2)cc1" ?
Response line: class 0

Prompt line: What was the test verdict on "O=C1CC(=O)CC(c2ccc(Cl)c(Cl)c2)C1" ?
Response line: class 0

Prompt line: Hi, sorry to bother you, what did the test record for "N#CCS(=O)(=O)c1cccs1" ?
Response line: class 0

Prompt line: Outcome logged for C[C@H]1O[C@@H](O[C@H]2[C@@H](O)C[C@H](O[C@H]3[C@@H](O)C[C@H](O[C@H]4CC[C@]5(C)C6CC[C@]7(C)[C@@H](C8=CC(=O)OC8)CC[C@]7(O)C6CC[C@@H]5C4)O[C@@H]3C)O[C@@H]2C)C[C@H](O)[C@@H]1O (some centres undefined) in this assay:
Response line: class 0

Prompt line: Please state the recorded outcome for this compound: O=c1c(O)cccc2c(C3Oc4cc(O)cc(O)c4CC3O)cc(O)c(O)c12 (centres undefined)
Response line: class 1

Prompt line: Record lookup: outcome of this test for CC1=C2C(O)C(=O)OC3CC4C(C)(C)C(=O)C=C[C@]4(C)C(CC1)[C@]23C (some centres undefined) ?
Response line: class 0

Prompt line: What did the test return for "N#CCCN1C(=O)C2(OCCO2)c2ccccc21" ?
Response line: class 0

Prompt line: How was CC(=O)OC1CC[C@@]2(C)C(CCC3C2CC[C@]2(C)C(C4=CC(=O)OC4)C(OC(C)=O)CC32O)C1 (some centres undefined) classified in this test?
Response line: class 0
